Value source: paper PMC9928118

Some sequences, each annotated with its measured Chip Fluorescence (mean).
# Test system: GST-tagged Cn
# experimentalProtocol: PEPperPRINT peptide microarray binding assay with GST-tagged Cn
# assayConditions: mean over the spots listed under Location on chip

Given item ADEAIPEIVISPPELP [SeqRBMlowT_1959] , the value recorded as its Chip Fluorescence (mean) is 0.2863

Given item LKDEIPEVRLNIISAL [SeqRBMlowT_1072] , the value recorded as its Chip Fluorescence (mean) is 0.7654

Given item STAALPKFDFSNPHIS [SeqRBM_9234] , the value recorded as its Chip Fluorescence (mean) is 0.4605

Given item VALVIRSTDKDDVGNY [SeqCEACAM5_Bactrocera_latifrons] , the value recorded as its Chip Fluorescence (mean) is 1.368

Given item TFWTNPQYRLKIPDPD [SeqRBMlowT_280] , the value recorded as its Chip Fluorescence (mean) is 0.4774

Given item AYPGTYYGQDGSHKKQ [SeqRBM_820] , the value recorded as its Chip Fluorescence (mean) is 0.3608
